- system tested: EGFR (Homo sapiens)
- assay procedure: ADP-Glo kinase assay, EGFR
- Assay type: biochemical
- Design: purchased BPS Bioscience (assay run externally by the vendor)
- condition set: Log[nM] 5.0; Set1
EGFR % Activity Set1 for assorted compounds
reported metric: EGFR % Activity Set1 (%)

| item smiles | system tested | reported metric | unit abbreviation | number |
| --- | --- | --- | --- | --- |
| Clc1ccc(Nc2ncnc3[nH]ccc23)cc1 | EGFR (Homo sapiens) | EGFR % Activity Set1 | % | 1 |
| Cc1ccccc1Nc1ncnc2[nH]ccc12 | EGFR (Homo sapiens) | EGFR % Activity Set1 | % | 4 |
| Nc1nc(Nc2cccc(Br)c2)c2cc[nH]c2n1 | EGFR (Homo sapiens) | EGFR % Activity Set1 | % | 1 |
| Clc1ccccc1Nc1ncnc2[nH]ccc12 | EGFR (Homo sapiens) | EGFR % Activity Set1 | % | 5 |
| Clc1ccc(Nc2ncnc3[nH]ccc23)cc1Br | EGFR (Homo sapiens) | EGFR % Activity Set1 | % | 0 |
| FC(F)(F)c1cccc(Nc2ncnc3[nH]ccc23)c1 | EGFR (Homo sapiens) | EGFR % Activity Set1 | % | 0 |

====

Entries annotated with measured pIC50
- system tested: aurora A kinase (AURKA) (Homo sapiens, UniProt O14965)
- Construct: purchased BPS Bioscience (assay run externally by the vendor)
- assay procedure: ADP-Glo kinase assay, Aurora A
- Assay type: biochemical
- condition set: 10 µM ATP/0.2 mg/ml Kemptide; read-out: Aurora A IC50 (dose-response curve, supplement)
pIC50: −log10 of the molar value.

| item smiles | pIC50 |
| --- | --- |
| Clc1ccccc1Nc1ncnc2[nH]ccc12 | 5.24 |
| Clc1ccc(Nc2ncnc3[nH]ccc23)cc1 | 5.28 |
| c1ccc(Oc2ccc(Nc3ncnc4[nH]ccc34)cc2)cc1 | 4.89 |
| FC(F)(F)c1cccc(Nc2ncnc3[nH]ccc23)c1 | 5.24 |
| Brc1ccc(Nc2ncnc3[nH]ccc23)cc1 | 5.43 |
| COc1ccc(Nc2ncnc3[nH]ccc23)cc1 | 5.17 |
| Clc1cccc(Nc2ncnc3[nH]ccc23)c1 | 5.51 |
| c1ccc(Nc2ncnc3[nH]ccc23)cc1 | 5.25 |
| Fc1cc(Nc2ncnc3[nH]ccc23)ccc1Cl | 5.48 |
| Cc1ccc(Nc2ncnc3[nH]ccc23)cc1 | 5.27 |
| Clc1ccc(Nc2ncnc3[nH]ccc23)cc1Cl | 5.41 |

====

- system tested: EGFR (Homo sapiens, UniProt P00533)
- Sequence (P00533 25-1210): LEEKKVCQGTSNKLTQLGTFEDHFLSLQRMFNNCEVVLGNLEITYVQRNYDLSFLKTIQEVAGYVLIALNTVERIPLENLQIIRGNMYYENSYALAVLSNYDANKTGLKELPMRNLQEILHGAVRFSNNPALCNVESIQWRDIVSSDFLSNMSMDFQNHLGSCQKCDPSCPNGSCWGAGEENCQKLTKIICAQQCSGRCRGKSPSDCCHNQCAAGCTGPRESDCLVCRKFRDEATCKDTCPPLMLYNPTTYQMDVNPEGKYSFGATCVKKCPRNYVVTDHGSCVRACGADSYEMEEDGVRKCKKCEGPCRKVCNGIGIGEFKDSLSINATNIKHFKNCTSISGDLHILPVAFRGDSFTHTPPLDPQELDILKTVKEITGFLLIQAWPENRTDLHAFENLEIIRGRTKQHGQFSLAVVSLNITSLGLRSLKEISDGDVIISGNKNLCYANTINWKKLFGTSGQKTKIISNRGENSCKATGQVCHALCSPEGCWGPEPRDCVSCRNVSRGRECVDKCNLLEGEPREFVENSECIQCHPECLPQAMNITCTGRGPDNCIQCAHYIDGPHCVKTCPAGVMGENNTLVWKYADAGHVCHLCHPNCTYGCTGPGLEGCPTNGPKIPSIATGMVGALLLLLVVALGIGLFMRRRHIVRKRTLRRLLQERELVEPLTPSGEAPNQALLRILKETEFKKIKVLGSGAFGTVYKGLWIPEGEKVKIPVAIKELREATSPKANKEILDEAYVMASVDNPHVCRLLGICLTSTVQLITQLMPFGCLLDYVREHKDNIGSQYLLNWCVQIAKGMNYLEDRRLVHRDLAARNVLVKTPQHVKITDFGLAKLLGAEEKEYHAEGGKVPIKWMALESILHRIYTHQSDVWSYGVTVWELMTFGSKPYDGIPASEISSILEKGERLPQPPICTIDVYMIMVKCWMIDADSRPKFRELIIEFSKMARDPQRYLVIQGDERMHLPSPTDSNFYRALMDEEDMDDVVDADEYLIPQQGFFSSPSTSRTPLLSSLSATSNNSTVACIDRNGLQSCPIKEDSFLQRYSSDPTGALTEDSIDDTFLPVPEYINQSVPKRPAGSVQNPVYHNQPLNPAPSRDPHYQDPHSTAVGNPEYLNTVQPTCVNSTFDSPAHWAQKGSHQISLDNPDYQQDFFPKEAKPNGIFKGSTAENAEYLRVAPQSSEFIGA
- assay procedure: ADP-Glo kinase assay, EGFR
- Type: biochemical
- Design: purchased BPS Bioscience (assay run externally by the vendor)
- condition set: Log[nM] 4.5; Set2
Values of EGFR % Activity Set2 strictly less than 1% map to satisfied, and values of at least 1% map to not satisfied.

| molecule | cat |
| --- | --- |
| Clc1ccccc1Nc1ncnc2[nH]ccc12 [Compound 14] | not satisfied |
| Cc1ccccc1Nc1ncnc2[nH]ccc12 [Compound 15] | not satisfied |
| COc1ccc(Nc2ncnc3[nH]ccc23)cc1 [Compound 6] | not satisfied |
| c1ccc(Nc2ncnc3[nH]ccc23)cc1 [Compound 1] | not satisfied |
| Clc1ccc(Nc2ncnc3[nH]ccc23)cc1Cl [Compound 5] | satisfied |
| c1ccc(Cc2ccc(Nc3ncnc4[nH]ccc34)cc2)cc1 [Compound 18] | not satisfied |
| Clc1cccc(Nc2ncnc3[nH]ccc23)c1 [Compound 11] | satisfied |
| Brc1cccc(Nc2ncnc3[nH]ccc23)c1 [Compound 2] | satisfied |
| Cc1ccc(Nc2ncnc3[nH]ccc23)cc1 [Compound 9] | not satisfied |

====

- system tested: aurora A kinase (AURKA) (Homo sapiens, UniProt O14965)
- Construct: purchased BPS Bioscience (assay run externally by the vendor)
- assay procedure: ADP-Glo kinase assay, Aurora A
- Assay type: biochemical
- condition set: Log[nM] 1.0; Set3

| molecule | unit abbreviation | Aurora A % Activity Set3 |
| --- | --- | --- |
| c1ccc(Oc2ccc(Nc3ncnc4[nH]ccc34)cc2)cc1 | % | 97 |
| Clc1ccc(Nc2ncnc3[nH]ccc23)cc1Cl | % | 97 |
| Cc1cccc(Nc2ncnc3[nH]ccc23)c1 | % | 97 |
| Brc1cccc(Nc2ncnc3[nH]ccc23)c1 | % | 96 |
| FC(F)(F)c1cccc(Nc2ncnc3[nH]ccc23)c1 | % | 106 |
| c1ccc(Nc2ncnc3[nH]ccc23)cc1 | % | 91 |
| CN[C@@H]1C[C@H]2O[C@@](C)([C@@H]1OC)n1c3ccccc3c3c4c(c5c6ccccc6n2c5c31)C(=O)NC4 [Staurosporine, staurosporine, reference compound] | % | 102 |

====

- system tested: EGFR (Homo sapiens, UniProt P00533)
- assay procedure: ADP-Glo kinase assay, EGFR
- Assay type: biochemical
- Design: purchased BPS Bioscience (assay run externally by the vendor)
- condition set: Log[nM] 0; Set1
Below, each of the compounds is paired with its reported EGFR % Activity Set1 value.
reported metric: EGFR % Activity Set1 (%)

| item smiles | number |
| --- | --- |
| c1ccc(Oc2ccc(Nc3ncnc4[nH]ccc34)cc2)cc1 | 93 |
| Clc1ccccc1Nc1ncnc2[nH]ccc12 | 100 |
| Clc1ccc(Nc2ncnc3[nH]ccc23)cc1Br | 44 |
| Clc1ccc(Nc2ncnc3[nH]ccc23)cc1Cl | 51 |
| COc1ccc(Nc2ncnc3[nH]ccc23)cc1 | 98 |
| Cc1cccc(Nc2ncnc3[nH]ccc23)c1 | 77 |

====

- system tested: UniProt:P00533
- assay procedure: ADP-Glo kinase assay, EGFR
- Type: biochemical
- Parameters: purchased BPS Bioscience (assay run externally by the vendor)
- condition set: Log[nM] 4.0; Set3
reported metric: EGFR % Activity Set3 (%)

| item smiles | reported metric | number |
| --- | --- | --- |
| c1ccc(Nc2ncnc3[nH]ccc23)cc1 | EGFR % Activity Set3 | 5 |
| Clc1ccccc1Nc1ncnc2[nH]ccc12 | EGFR % Activity Set3 | 7 |
| Clc1ccc(Nc2ncnc3[nH]ccc23)cc1Cl | EGFR % Activity Set3 | 1 |
| Clc1cccc(Nc2ncnc3[nH]ccc23)c1 | EGFR % Activity Set3 | 0 |
| Clc1ccc(Nc2ncnc3[nH]ccc23)cc1Br | EGFR % Activity Set3 | 0 |
| Clc1ccc(Nc2ncnc3[nH]ccc23)cc1 | EGFR % Activity Set3 | 2 |
| Cc1cccc(Nc2ncnc3[nH]ccc23)c1 | EGFR % Activity Set3 | 1 |
| Brc1ccc(Nc2ncnc3[nH]ccc23)cc1 | EGFR % Activity Set3 | 2 |
| Cc1ccccc1Nc1ncnc2[nH]ccc12 | EGFR % Activity Set3 | 10 |
| Fc1cc(Nc2ncnc3[nH]ccc23)ccc1Cl | EGFR % Activity Set3 | 0 |
| Cc1ccc(Nc2ncnc3[nH]ccc23)cc1 | EGFR % Activity Set3 | 10 |

====

- system tested: aurora A kinase (AURKA) (Homo sapiens)
- Construct: purchased BPS Bioscience (assay run externally by the vendor)
- assay procedure: ADP-Glo kinase assay, Aurora A
- Format: biochemical
- condition set: Log[nM] 3.0; Set2

| item smiles | unit abbreviation | Aurora A % Activity Set2 |
| --- | --- | --- |
| Clc1ccccc1Nc1ncnc2[nH]ccc12 | % | 86 |
| FC(F)(F)c1cccc(Nc2ncnc3[nH]ccc23)c1 | % | 100 |
| Cc1cccc(Nc2ncnc3[nH]ccc23)c1 | % | 91 |
| Clc1ccc(Nc2ncnc3[nH]ccc23)cc1 | % | 93 |
| Clc1ccc(Nc2ncnc3[nH]ccc23)cc1Cl | % | 104 |
| Nc1nc(Nc2cccc(Br)c2)c2cc[nH]c2n1 | % | 80 |

====

- system tested: aurora A kinase (AURKA) (Homo sapiens, UniProt O14965)
- Construct: purchased BPS Bioscience (assay run externally by the vendor)
- Sequence (O14965 1-403): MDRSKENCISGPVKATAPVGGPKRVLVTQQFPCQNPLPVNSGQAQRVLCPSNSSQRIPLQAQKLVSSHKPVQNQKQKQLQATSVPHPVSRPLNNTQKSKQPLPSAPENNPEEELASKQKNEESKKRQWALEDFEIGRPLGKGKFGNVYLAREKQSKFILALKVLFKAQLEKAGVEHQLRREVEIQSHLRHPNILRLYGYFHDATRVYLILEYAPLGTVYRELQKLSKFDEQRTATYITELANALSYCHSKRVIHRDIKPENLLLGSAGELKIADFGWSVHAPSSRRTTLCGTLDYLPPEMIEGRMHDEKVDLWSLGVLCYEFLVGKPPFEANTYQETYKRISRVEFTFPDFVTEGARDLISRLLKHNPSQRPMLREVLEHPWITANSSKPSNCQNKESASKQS
- assay procedure: ADP-Glo kinase assay, Aurora A
- Assay type: biochemical
- condition set: Log[nM] 0; Set2

| compound | system tested | Aurora A % Activity Set2 (%) |
| --- | --- | --- |
| c1ccc(Oc2ccc(Nc3ncnc4[nH]ccc34)cc2)cc1 | aurora A kinase (AURKA) (Homo sapiens, UniProt O14965) | 94 |
| Cc1ccccc1Nc1ncnc2[nH]ccc12 | aurora A kinase (AURKA) (Homo sapiens, UniProt O14965) | 97 |
| Clc1ccc(Nc2ncnc3[nH]ccc23)cc1Cl | aurora A kinase (AURKA) (Homo sapiens, UniProt O14965) | 97 |
| c1ccc(Cc2ccc(Nc3ncnc4[nH]ccc34)cc2)cc1 | aurora A kinase (AURKA) (Homo sapiens, UniProt O14965) | 93 |
| Nc1nc(Nc2cccc(Br)c2)c2cc[nH]c2n1 | aurora A kinase (AURKA) (Homo sapiens, UniProt O14965) | 107 |
| CN[C@@H]1C[C@H]2O[C@@](C)([C@@H]1OC)n1c3ccccc3c3c4c(c5c6ccccc6n2c5c31)C(=O)NC4 [Staurosporine, staurosporine, reference compound] | aurora A kinase (AURKA) (Homo sapiens, UniProt O14965) | 103 |
| Clc1ccc(Nc2ncnc3[nH]ccc23)cc1Br | aurora A kinase (AURKA) (Homo sapiens, UniProt O14965) | 102 |
| Clc1ccc(Nc2ncnc3[nH]ccc23)cc1 | aurora A kinase (AURKA) (Homo sapiens, UniProt O14965) | 101 |
| COc1ccc(Nc2ncnc3[nH]ccc23)cc1 | aurora A kinase (AURKA) (Homo sapiens, UniProt O14965) | 94 |
| Brc1cccc(Nc2ncnc3[nH]ccc23)c1 | aurora A kinase (AURKA) (Homo sapiens, UniProt O14965) | 94 |
| c1ccc(Nc2ncnc3[nH]ccc23)cc1 | aurora A kinase (AURKA) (Homo sapiens, UniProt O14965) | 91 |
| FC(F)(F)c1cccc(Nc2ncnc3[nH]ccc23)c1 | aurora A kinase (AURKA) (Homo sapiens, UniProt O14965) | 101 |
| Fc1cc(Nc2ncnc3[nH]ccc23)ccc1Cl | aurora A kinase (AURKA) (Homo sapiens, UniProt O14965) | 93 |
| Brc1ccc(Nc2ncnc3[nH]ccc23)cc1 | aurora A kinase (AURKA) (Homo sapiens, UniProt O14965) | 87 |

Hey, just so you know, these numbers are from paper PMC6009956.
